# Tested on: CCF-STTG1
# procedure_summary: Cell panel screen (CellTiter-Glo)
# Format: cell-based, human
# condition_parameters: CCF-STTG1 (Brain), 20 micromolar, 72 hrs
readout_kind: Percent Inhibition
# answer = value followed by unit

molecule	measured_on	readout_kind	reported_result
COC(=O)C1OC(Oc2cc(O)c3c(c2)OC(c2ccc(O)c(O)c2)CC3=O)C(O)C(O)C1O (stereo not shown)	CCF-STTG1	Percent Inhibition	8%
COc1c(CC=C(C)C)cc2c(=O)c3c(O)cc(O)cc3oc2c1O	CCF-STTG1	Percent Inhibition	25%
CC(C)=CCc1c2c(c(O)c3c(=O)c4c(CC=C(C)C)c(O)c(O)cc4oc13)C=CC(C)(C)O2	CCF-STTG1	Percent Inhibition	86%
CC(C)=CCc1c(O)c(O)cc2oc3cc(O)cc(O)c3c(=O)c12	CCF-STTG1	Percent Inhibition	8%
CC(C)=CCc1c(O)cc2oc3c(c(=O)c2c1O)C(CC=C(C)C)(CC=C(C)C)C(=O)C(O)=C3	CCF-STTG1	Percent Inhibition	52%
CC(C)=CCC/C(C)=C/Cc1c(O)c(CC=C(C)C)c2c(c1O)C(=O)C1=C[C@@H]3C[C@H]4C(C)(C)O[C@@](C/C=C(/C)C(=O)O)(C3=O)[C@@]14O2	CCF-STTG1	Percent Inhibition	99%

Here's the next entry for you.
[in] Requested read-out: Percent Inhibition. Entry: O=c1c2cc(O)ccc2oc2cccc(O)c12 [gl-20]
[out] 49%

* * *

# System: J82
# procedure_summary: Cell panel screen (CellTiter-Glo)
# Format: cell-based, human
# condition_parameters: J82 (Urinary bladder), 20 micromolar, 72 hrs
readout_kind: Percent Inhibition (%)
Return type: number; implicit unit %.

molecule	reported_result
O=c1c2cc(O)ccc2oc2cccc(O)c12 [Gof3]	20
COc1c(CC=C(C)C)cc2c(=O)c3c(O)cc(O)cc3oc2c1OC	52
CC(C)=CCc1c(O)cc2oc3cc(O)c(O)c(CCC(C)(C)O)c3c(=O)c2c1O	85

[in] Requested read-out: Percent Inhibition. Entry: O=c1c2cc(O)c(O)cc2oc2cc(O)cc(O)c12
[out] 47

[in] Requested read-out: Percent Inhibition. Entry: O=C(c1ccc(O)c(O)c1)c1c(O)cc(O)cc1O
[out] 1

* * *

Measured Percent Inhibition values are reported for all entries that follow.
# System: CW-2
# procedure_summary: Cell panel screen (CellTiter-Glo)
# Format: cell-based, human
# condition_parameters: CW-2 (Colon), 20 micromolar, 72 hrs
Return type: number; implicit unit %.

[in] Requested read-out: Percent Inhibition. Entry: COc1c(O)c(O)c2c(=O)c3c(CC=C(C)C)c(CC=C(C)C)c(O)c(O)c3oc2c1CC=C(C)C [Compound N-7]
[out] 22

[in] Requested read-out: Percent Inhibition. Entry: CC(C)=CCc1c(O)cc2oc3c(c(=O)c2c1O)C(CC=C(C)C)(CC=C(C)C)C(=O)C(O)=C3 [bn-2, Allanxanthone C]
[out] 72

[in] Requested read-out: Percent Inhibition. Entry: O=C1CC(c2ccc(O)c(O)c2)Oc2cc(OC3OC(C(=O)O)C(O)C(O)C3O)cc(O)c21 (stereo not shown) [gly-2]
[out] -2

[in] Requested read-out: Percent Inhibition. Entry: CC(C)=CCc1c(O)cc2oc3cc(O)c(O)c(CC=C(C)C)c3c(=O)c2c1O [Ge9]
[out] 99

* * *

# Tested on: SW1353
# procedure_summary: Cell proliferation assay (CellTiter-Glo)
# Type: cell-based
# condition_parameters: Homo sapiens, SW1353 cells, 72 h
readout_kind: pIC50
As a rule, pIC50 stands for the negative log10 of the concentration, concentration in M.

These solved cases illustrate the format of a correct answer.
compound	measured_on	reported_result
CC(C)=CCC[C@@]1(C)C=Cc2c(O)c3c(c(C/C=C(\C)CO)c2O1)O[C@]12C(=C[C@@H]4C[C@H]1C(C)(C)O[C@@]2(C/C=C(/C)C(=O)O)C4=O)C3=O [GB40, 35-hydroxyepigambogic acid]	SW1353	6.08
CC(C)=CCC/C(C)=C/Cc1c(O)c(CC=C(C)C)c2c(c1O)C(=O)C1=C[C@@H]3C[C@H]4C(C)(C)O[C@@](C/C=C(\C)C=O)(C3=O)[C@@]14O2	SW1353	5.89
CC(C)=CCC/C(C)=C/Cc1c(O)c(CC=C(C)C)c2c(c1O)C(=O)C1=C[C@@H]3C[C@H]4C(C)(C)O[C@@](CC=C(C)C)(C3=O)[C@@]14O2	SW1353	5.85
CC(C)=CCC[C@@]1(C)C=Cc2c(O)c3c(c(CCC(C)(C)O)c2O1)O[C@]12C(=C[C@@H]4C[C@H]1C(C)(C)O[C@@]2(C/C=C(/C)C(=O)O)C4=O)C3=O [GB39, 33-hydroxyepigambogic acid]	SW1353	6.12
CC(C)=CCC/C(C)=C/Cc1c(O)c(CC=C(C)C)c2c(c1O)C(=O)C1=C[C@@H]3C[C@H]4C(C)(C)O[C@@](C/C=C(\C)C(=O)O)(C3=O)[C@@]14O2	SW1353	5.61

Here's the next entry for you.
[in] Requested read-out: pIC50. Entry: CN[C@@H]1C[C@H]2O[C@@](C)([C@@H]1OC)n1c3ccccc3c3c4c(c5c6ccccc6n2c5c31)C(=O)NC4 [Staurosporine, staurosporine, reference compound]
[out] 8.40

* * *

# System: NCI-H2405
# procedure_summary: Cell panel screen (CellTiter-Glo)
# Assay type: cell-based, human
# condition_parameters: NCI-H2405 (Lung), 20 micromolar, 72 hrs
Measured Percent Inhibition values are reported for all entries that follow.
Return type: number; implicit unit %.

compound	scale_unit	Percent Inhibition
COC(=O)C1OC(Oc2cc(O)c3c(=O)cc(-c4ccc(O)cc4)oc3c2)C(O)C(O)C1O (stereo not shown)	%	-12
CC(C)=CCc1c2c(c(O)c3c(=O)c4c(CC=C(C)C)c(O)c(O)cc4oc13)C=CC(C)(C)O2	%	92
CC(C)=CCc1c2c(c3oc4c(O)c(O)ccc4c(=O)c3c1O)C=CC(C)(C)O2	%	-5

Here's the next entry for you.
[in] Requested read-out: Percent Inhibition. Entry: CC(C)=CCc1c(O)cc2oc3ccc(O)cc3c(=O)c2c1O
[out] 7

* * *

Measured Percent Inhibition values are reported for all entries that follow.
# System: CCF-STTG1
# procedure_summary: Cell panel screen (CellTiter-Glo)
# Type: cell-based, human
# condition_parameters: CCF-STTG1 (Brain), 20 micromolar, 72 hrs

These solved cases illustrate the format of a correct answer.
compound	reported_result
CC(C)=CCc1c(O)cc(O)c2c1O[C@]13C(=C[C@@H]4C[C@H]1C(C)(C)O[C@@]3(CC=C(C)C)C4=O)C2=O	100%
CC(C)=CCc1c(O)cc2oc3ccc(O)cc3c(=O)c2c1O	43%
CC(C)=CCc1c2c(c(O)c3c1OC14C(=CC5CC1C(C)(C)OC4(CC=C(C)C(=O)O)C5=O)C3=O)C=CC(C)(C)O2 (stereo not shown)	99%

[in] Requested read-out: Percent Inhibition. Entry: COc1cc(O)c2c(=O)c3c(CC=C(C)C)cc(O)c(O)c3oc2c1CC=C(C)CCC=C(C)C
[out] 87%

* * *

Measured Percent Inhibition values are reported for all entries that follow.
# Test system: A704
# procedure_summary: Cell panel screen (CellTiter-Glo)
# Format: cell-based, human
# condition_parameters: A704 (Kidney), 20 micromolar, 72 hrs

These solved cases illustrate the format of a correct answer.
1. CC(C)=CCc1c(O)c(O)cc2oc3cc(O)cc(O)c3c(=O)c12 -11%
2. CC(C)=CCc1c2c(c3oc4c(O)c(O)ccc4c(=O)c3c1O)C=CC(C)(C)O2 -8%
3. COc1cc(O)c2c(=O)c3cc(CC=C(C)C)c(O)c(O)c3oc2c1CC=C(C)C 92%

Here's the next entry for you.
[in] Requested read-out: Percent Inhibition. Entry: COc1cc(O)c2c(=O)c3c(CC=C(C)C)cc(O)c(O)c3oc2c1CC=C(C)CCC=C(C)C
[out] 96%

* * *

# Test system: NCI-H1650
# procedure_summary: Cell proliferation assay (CellTiter-Glo)
# Format: cell-based, human
# condition_parameters: NCI-H1650 cells, 72 hr, 20 μM to 0.009 μM in serial 3-fold dilutions
readout_kind: IC50

compound	readout_kind	reported_result
CC(C)=CCC[C@@]1(C)C=Cc2c(O)c3c(c(CCC(C)(C)O)c2O1)O[C@]12C(=C[C@@H]4C[C@H]1C(C)(C)O[C@@]2(C/C=C(/C)C(=O)O)C4=O)C3=O [GB39, 33-hydroxyepigambogic acid]	IC50	950 nM

Here's the next entry for you.
[in] Requested read-out: IC50. Entry: CC(C)=CCC[C@@]1(C)C=Cc2c(O)c3c(c(C/C=C(\C)CO)c2O1)O[C@]12C(=C[C@@H]4C[C@H]1C(C)(C)O[C@@]2(C/C=C(/C)C(=O)O)C4=O)C3=O [GB40, 35-hydroxyepigambogic acid]
[out] 620 nM
